# experiment-notes: Trypanosoma cruzi growth suppression in host cells – NIH3T3 host cells, beta-gal luminescence, confirmation (AID 2044);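 note: intracellular parasites grown in NIH/3T3 mouse fibroblasts as host cells; luminescent beta-galactosidase reporter signal from transgenic T. cruzi replicating inside host cells; inhibitors lower the luminescence signal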
# Format: functional, cell-based
Calls of active or inactive are those of the source. Cut-off read from the data, not from the text of the source: actives have a measured EC50 and inactives only a lower limit.

[
  {
    "compound": "CC(C)(C)C(O)C(Oc1ccc(Cl)cc1)n1cncn1 (centres undefined)",
    "EC50": "1510 nM (active)"
  },
  {
    "compound": "CC1C(=O)OC2C1CCC1(C)CCC(=O)C(C)C21 (centres undefined)",
    "EC50": "2610 nM (active)"
  },
  {
    "compound": "COc1cc(/C=C(/C)[N+](=O)[O-])ccc1OCc1ccccc1Cl",
    "EC50": "2070 nM (active)"
  },
  {
    "compound": "CCCOc1cccc(CN2CCCCC2c2cccnc2)c1 (centres undefined)",
    "EC50": "1530 nM (active)"
  },
  {
    "compound": "NC(=S)N/N=C/c1ccc(C23CC4CC(CC(C4)C2)C3)cc1",
    "EC50": "387 nM (active)"
  },
  {
    "compound": "Cc1ccc(-c2nn(-c3ccccc3)cc2C(=O)Nc2ccc(C)c(S(=O)(=O)N3CCOCC3)c2)cc1",
    "EC50": "1570 nM (active)"
  },
  {
    "compound": "CC1=CC(C)(C)N2C(=O)C3(C(C#N)=C(N)Oc4cc(C)oc(=O)c43)c3cc(C)cc1c32 (centres undefined)",
    "EC50": "253 nM (active)"
  },
  {
    "compound": "c1ccc(-c2cc(-c3nc4ccccc4[nH]3)c3ccccc3n2)cc1",
    "EC50": "1700 nM (active)"
  },
  {
    "compound": "Cc1cc(C)c2c(=O)n(CC(=O)Nc3cccc(Cl)c3C)sc2n1",
    "EC50": "1650 nM (active)"
  }
]
